Assign efflux ratio at 2 h, 10 µM to each entry below.
EXPERIMENTAL_DETAILS: in vitro
CONDITION: human, Caco-2

Quick one: efflux ratio at 2 h, 10 µM of CC[C@H]1OC(=O)[C@H](C)[C@@H](O[C@H]2C[C@@](C)(OC)[C@@H](O)[C@H](C)O2)[C@H](C)[C@@H](O[C@@H]2O[C@H](C)C[C@H](N(C)C)[C@H]2O)[C@](C)(OC)C[C@@H](C)C(=O)[C@H](C)[C@@H](O)[C@]1(C)O ? 5.1

Entry CN(Cc1cnc2nc(N)nc(N)c2n1)c1ccc(C(=O)N[C@@H](CCC(=O)O)C(=O)O)cc1 [METHOTREXATE] please 0.9

Request: CC(C)c1nc(N(C)S(C)(=O)=O)nc(-c2ccc(F)cc2)c1/C=C/[C@@H](O)C[C@@H](O)CC(=O)O 15.9

Param item: Cc1cn([C@H]2C[C@H](N=[N+]=[N-])[C@@H](CO)O2)c(=O)[nH]c1=O 1.4

Also need COc1cc2c(c(OC)c1OC)-c1ccc(OC)c(=O)cc1[C@@H](NC(C)=O)CC2 , thanks. 4.3

// next record C=CCN1CC[C@]23c4c5ccc(O)c4O[C@H]2C(=O)CC[C@@]3(O)[C@H]1C5 0.5

And CC1=C(CC(=O)O)c2cc(F)ccc2/C1=C\c1ccc([S+](C)[O-])cc1 (stereo not drawn) ? 3.6

Would you mind doing CC(C)(C)NC(=O)[C@@H]1CN(Cc2cccnc2)CCN1C[C@@H](O)C[C@@H](Cc1ccccc1)C(=O)N[C@H]1c2ccccc2C[C@H]1O.O as well? 9.7

* * *

EXPERIMENTAL_DETAILS: in vitro
CONDITION: human, Caco-2
Numbered stars: 1 amine (or outer) side, 2 acyl side, 3 side chain; on linkers, the order of the positions; unused ones are H or OH. Bridge positions count the residues as written; N and C are the ends. Square brackets hold non-standard residues; d marks the D form. Peptide text beside a SMILES is read from it. I, II: the chains in the order shown. Actinocin(9to1) = Cc1c2oc3c(C)ccc(C(=O)[*:1])c3nc-2c(C(=O)[*:2])c(N)c1=O; NMeV = CN[C@H](C(=O)O)C(C)C; Sar = CNCC(=O)O
OBSERVATION_TYPE: efflux ratio at 2 h, 10 µM
In your answer, state the number alone without any accompanying words.

Data request, read-out efflux ratio at 2 h, 10 µM, for CCc1c2c(nc3ccc(OC(=O)N4CCC(N5CCCCC5)CC4)cc13)-c1cc3c(c(=O)n1C2)COC(=O)[C@]3(O)CC 3.7

And then CNS(=O)(=O)Cc1ccc2[nH]cc(CCN(C)C)c2c1 , what is it? 1.4

Ok, now COc1cc2nc(N3CCN(C(=O)c4ccco4)CC3)nc(N)c2cc1OC 1.8

Try this compound too: Nc1cc(-c2ccncc2)c[nH]c1=O 1.4

Lookup OC(Cn1cncn1)(Cn1cncn1)c1ccc(F)cc1F 0.6

Queued: COC(=O)C1=C(C)NC(C)=C(C(=O)OCCN(C)Cc2ccccc2)C1c1cccc([N+](=O)[O-])c1 (stereo not given) 0.5

How about C[C@H]1O[C@@H](O[C@H]2[C@@H](O)C[C@H](O[C@H]3[C@@H](O)C[C@H](O[C@H]4CC[C@@]5(C)[C@H](CC[C@@H]6[C@@H]5C[C@@H](O)[C@]5(C)[C@@H](C7=CC(=O)OC7)CC[C@]65O)C4)O[C@@H]3C)O[C@@H]2C)C[C@H](O)[C@@H]1O ? 7.5

Same again, this time with O=C1c2c(O)ccc(O)c2C(=O)c2c(NCCNCCO)ccc(NCCNCCO)c21 0.5

What about this compound? CN/C(=N/CCSCc1nc[nH]c1C)NC#N 3.5

Repeat with O=C(O)CN(CCN(CC(=O)O)Cc1ccccc1O)Cc1ccccc1O 2.1

Same lookup for O=C1CN(/N=C/c2ccc([N+](=O)[O-])o2)C(=O)N1 , please. 10.4

Lookup CC[C@H]1OC(=O)[C@H](C)[C@@H](O[C@H]2C[C@@](C)(OC)[C@@H](O)[C@H](C)O2)[C@H](C)[C@@H](O[C@@H]2O[C@H](C)C[C@H](N(C)C)[C@H]2O)[C@](C)(O)C[C@@H](C)C(=O)[C@H](C)[C@@H](O)[C@]1(C)O 7.1

Now the same for O=C(CCCN1CCC(O)(c2ccc(Cl)cc2)CC1)c1ccc(F)cc1 0.4

Cool, now Cc1c(O)cccc1C(=O)N[C@@H](CSc1ccccc1)[C@H](O)CN1C[C@H]2CCCC[C@H]2C[C@H]1C(=O)NC(C)(C)C 2.5

Record: Cc1c2oc3c(C)ccc(C(=O)N[C@@H]4C(=O)N[C@H](C(C)C)C(=O)N5CCC[C@H]5C(=O)N(C)CC(=O)N(C)[C@@H](C(C)C)C(=O)O[C@@H]4C)c3nc-2c(C(=O)N[C@@H]2C(=O)N[C@H](C(C)C)C(=O)N3CCC[C@H]3C(=O)N(C)CC(=O)N(C)[C@@H](C(C)C)C(=O)O[C@@H]2C)c(N)c1=O [DACTINOMYCIN] (I: T[dV]P[Sar][NMeV] / II: T[dV]P[Sar][NMeV]; ester I:1-I:C, II:1-II:C; linker I:N-II:N via Actinocin(9to1)) 6.4

Item: C[C@H]1C[C@@H]2[C@H]([C@@H](O)C[C@@]3(C)[C@H]2CC[C@]3(O)C(=O)CO)[C@@]2(C)C=CC(=O)C=C12 2.9

Another compound to look at: CC[C@@]1(O)C(=O)OCc2c1cc1n(c2=O)Cc2cc3c(CN(C)C)c(O)ccc3nc2-1 6.9

Continue with COc1cc(Cc2cnc(N)nc2N)cc(OC)c1OC 0.7

Also COc1cc([C@@H]2c3cc4c(cc3[C@@H](O[C@@H]3O[C@@H]5CO[C@@H](C)O[C@H]5[C@H](O)[C@H]3O)[C@H]3COC(=O)[C@H]23)OCO4)cc(OC)c1O [ETOPOSIDE] ? 4.8

Next compound: CN1CCN(CCCN2c3ccccc3Sc3ccc(C(F)(F)F)cc32)CC1 1.9

* * *

EXPERIMENTAL_DETAILS: clinical
CONDITION: human, in vivo
Description: Fraction absorbed in human
Numbered stars: 1 amine (or outer) side, 2 acyl side, 3 side chain; on linkers, the order of the positions; unused ones are H or OH. Bridge positions count the residues as written; N and C are the ends. Square brackets hold non-standard residues; d marks the D form. Peptide text beside a SMILES is read from it. I, II: the chains in the order shown. Actinocin(9to1) = Cc1c2oc3c(C)ccc(C(=O)[*:1])c3nc-2c(C(=O)[*:2])c(N)c1=O; NMeV = CN[C@H](C(=O)O)C(C)C; Sar = CNCC(=O)O
Exercise: for every item that follows, state its recorded Fa.

Could you share which Fa value was measured for Cc1c2oc3c(C)ccc(C(=O)N[C@@H]4C(=O)N[C@H](C(C)C)C(=O)N5CCC[C@H]5C(=O)N(C)CC(=O)N(C)[C@@H](C(C)C)C(=O)O[C@@H]4C)c3nc-2c(C(=O)N[C@@H]2C(=O)N[C@H](C(C)C)C(=O)N3CCC[C@H]3C(=O)N(C)CC(=O)N(C)[C@@H](C(C)C)C(=O)O[C@@H]2C)c(N)c1=O [DACTINOMYCIN] (I: T[dV]P[Sar][NMeV] / II: T[dV]P[Sar][NMeV]; ester I:1-I:C, II:1-II:C; linker I:N-II:N via Actinocin(9to1)) ? 5%

Another: CC[C@]1(O)C[C@H]2CN(CCc3c([nH]c4ccccc34)[C@@](C(=O)OC)(c3cc4c(cc3OC)N(C=O)[C@H]3[C@@](O)(C(=O)OC)[C@H](OC(C)=O)[C@]5(CC)C=CCN6CC[C@]43[C@@H]65)C2)C1 < 10%

# iterate: O=C1c2c(O)ccc(O)c2C(=O)c2c(NCCNCCO)ccc(NCCNCCO)c21 85%

Input COCc1c(C(C)C)nc(C(C)C)c(/C=C/[C@@H](O)C[C@@H](O)CC(=O)O)c1-c1ccc(F)cc1 98%

How about this molecule: CC(C)CN(C[C@@H](O)[C@H](Cc1ccccc1)NC(=O)O[C@H]1CCOC1)S(=O)(=O)c1ccc(N)cc1 70%

Now the molecule CC[C@]1(O)C[C@@H]2CN(CCc3c([nH]c4ccccc34)[C@@](C(=O)OC)(c3cc4c(cc3OC)N(C)[C@H]3[C@@](O)(C(=O)OC)[C@H](OC(C)=O)[C@]5(CC)C=CCN6CC[C@]43[C@@H]65)C2)C1 5%

Note, next up: COc1cc([C@@H]2c3cc4c(cc3[C@@H](O[C@@H]3O[C@@H]5CO[C@@H](c6cccs6)O[C@H]5[C@H](O)[C@H]3O)[C@H]3COC(=O)[C@H]23)OCO4)cc(OC)c1O [TENIPOSIDE] 0%

Same thing, different molecule: C[C@H]1O[C@@H](O[C@H]2[C@@H](O)C[C@H](O[C@H]3[C@@H](O)C[C@H](O[C@H]4CC[C@@]5(C)[C@H](CC[C@@H]6[C@@H]5C[C@@H](O)[C@]5(C)[C@@H](C7=CC(=O)OC7)CC[C@]65O)C4)O[C@@H]3C)O[C@@H]2C)C[C@H](O)[C@@H]1O 68%

Let us now turn to CCCC(=O)Nc1ccc(OCC(O)CNC(C)C)c(C(C)=O)c1 (stereo not drawn) 70%

Okay, and CCCCC(=O)N(Cc1ccc(-c2ccccc2-c2nnn[nH]2)cc1)[C@H](C(=O)O)C(C)C ? 25%

How about this molecule: CC(C)n1c(/C=C/C(O)CC(O)CC(=O)O)c(-c2ccc(F)cc2)c2ccccc21 (stereo not drawn) 98%

Try CCn1cc(C(=O)O)c(=O)c2cc(F)c(N3CCNCC3)cc21 next. 40%

Try the molecule CN1CCN(CCCN2c3ccccc3Sc3ccc(C(F)(F)F)cc32)CC1 16%

# repeat for CN/C(=N/CCSCc1nc[nH]c1C)NC#N 60%

How about this molecule: O=C1C(CC[S+]([O-])c2ccccc2)C(=O)N(c2ccccc2)N1c1ccccc1 (stereo not drawn) 85%

Then Cc1ccc(NC(=O)c2ccc(CN3CCN(C)CC3)cc2)cc1Nc1nccc(-c2cccnc2)n1 ? 67%

And for CC(C)(C)NC(=O)[C@@H]1CN(Cc2cccnc2)CCN1C[C@@H](O)C[C@@H](Cc1ccccc1)C(=O)N[C@H]1c2ccccc2C[C@H]1O.O ? 63%

Next up: COC(=O)[C@H]1[C@H]2C[C@@H]3c4[nH]c5cc(OC)ccc5c4CCN3C[C@H]2C[C@@H](OC(=O)c2cc(OC)c(OC)c(OC)c2)[C@@H]1OC 50%

Then what about the molecule COc1cccc2c1C(=O)c1c(O)c3c(c(O)c1C2=O)C[C@@](O)(C(C)=O)C[C@@H]3O[C@H]1C[C@H](N)[C@H](O)[C@H](C)O1 ? 10%

What do we get for CC(=O)O[C@H]1C(=O)[C@@]2(C)[C@H]([C@H](OC(=O)c3ccccc3)[C@]3(O)C[C@H](OC(=O)[C@H](O)[C@@H](NC(=O)c4ccccc4)c4ccccc4)C(C)=C1C3(C)C)[C@]1(OC(C)=O)CO[C@@H]1C[C@@H]2O ? 6%

Another: COC(=O)C1=C(C)NC(C)=C(C(=O)OCCN(C)Cc2ccccc2)C1c1cccc([N+](=O)[O-])c1 (stereo not drawn) 100%

Request: C=CC[C@@H]1/C=C(\C)C[C@H](C)C[C@H](OC)[C@H]2O[C@@](O)(C(=O)C(=O)N3CCCC[C@H]3C(=O)O[C@H](/C(C)=C/[C@@H]3CC[C@@H](O)[C@H](OC)C3)[C@H](C)[C@@H](O)CC1=O)[C@H](C)C[C@@H]2OC [TACROLIMUS ANHYDROUS] 25%

Now consider CCN(CC)CCCC(C)Nc1ccnc2cc(Cl)ccc12 (stereo not drawn) . 89%
